Below: a set of entries, each annotated with reported pIC50.
Tested System: Recombinant human HDAC1 (Homo sapiens, UniProt Q13547)
Construct: FLAG (C); made in house
Sequence (Q13547 whole entry): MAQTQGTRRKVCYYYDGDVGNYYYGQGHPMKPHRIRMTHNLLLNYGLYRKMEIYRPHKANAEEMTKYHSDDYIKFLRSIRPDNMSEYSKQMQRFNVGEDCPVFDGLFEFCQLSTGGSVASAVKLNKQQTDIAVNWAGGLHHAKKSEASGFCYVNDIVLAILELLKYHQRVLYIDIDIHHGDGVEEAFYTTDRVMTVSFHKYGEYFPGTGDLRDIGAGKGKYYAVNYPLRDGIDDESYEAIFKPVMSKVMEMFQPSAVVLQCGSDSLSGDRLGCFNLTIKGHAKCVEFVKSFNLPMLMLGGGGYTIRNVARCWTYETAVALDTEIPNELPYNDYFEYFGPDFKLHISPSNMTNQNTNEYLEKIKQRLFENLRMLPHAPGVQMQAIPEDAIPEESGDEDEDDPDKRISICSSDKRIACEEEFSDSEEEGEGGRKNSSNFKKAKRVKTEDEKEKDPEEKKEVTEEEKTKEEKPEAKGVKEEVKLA
Assay Notes: Human HDAC enzyme inhibitor Fluor-de-Lys assay, HDAC1
Assay type: biochemical
Experimental Conditions: recombinant human HDAC1, Fluor-de-Lys assay
pIC50: −log10 of the molar value.
Experimental Readout: pIC50

[[record]]
molecule = "CCC(=O)CCCCC[C@H](NC(=O)[C@H]1CC12CCN(CC1CC1)CC2)c1ncc(-c2cc3ccc(=O)n(C)c3cc2F)o1 [Compound 400]"
recorded_number = 8.19

[[record]]
molecule = "CCC(=O)CCCCC[C@H](NC(=O)[C@H]1CC[C@]2(CC1)OC(=O)c1cccnc12)c1nnc(-c2cc3ccccc3nc2OC)o1 [Compound 368]"
recorded_number = 7.30

[[record]]
molecule = "CCC(=O)CCCCC[C@H](NC(=O)[C@H]1CC12CCN(C)CC2)c1ncc(-c2cc3ccc(N(C)C)nc3cc2OC)o1 [Compound 406]"
recorded_number = 9.08

[[record]]
molecule = "CCC(=O)CCCCC[C@H](NC(=O)[C@H]1CC12CCN(C)CC2)c1ncc(-c2cc3ccncc3cc2OC)o1 [Compound 405]"
recorded_number = 9.52


====

Tested System: Recombinant human HDAC2 (Homo sapiens)
Construct: Full length human HDAC2-FLAG was expressed in baculovirus infected Sf9 cells; FLAG (C); made in house; host or cells: Sf9 (baculovirus)
Sequence (Q92769 whole entry): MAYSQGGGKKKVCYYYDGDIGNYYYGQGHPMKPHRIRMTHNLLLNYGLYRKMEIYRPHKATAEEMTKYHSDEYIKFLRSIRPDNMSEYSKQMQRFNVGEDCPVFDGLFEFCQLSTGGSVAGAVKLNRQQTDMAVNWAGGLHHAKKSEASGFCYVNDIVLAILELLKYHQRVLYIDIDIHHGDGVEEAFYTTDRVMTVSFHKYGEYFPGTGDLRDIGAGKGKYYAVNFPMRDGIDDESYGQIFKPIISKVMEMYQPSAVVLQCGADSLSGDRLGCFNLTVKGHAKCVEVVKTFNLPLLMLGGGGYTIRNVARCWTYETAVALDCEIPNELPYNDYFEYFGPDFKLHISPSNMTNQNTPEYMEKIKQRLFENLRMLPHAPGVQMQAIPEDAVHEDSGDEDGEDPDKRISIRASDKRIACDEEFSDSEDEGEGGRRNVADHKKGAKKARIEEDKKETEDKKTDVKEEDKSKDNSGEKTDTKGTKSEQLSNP
Assay Notes: Human HDAC enzyme inhibitor Fluor-de-Lys assay, HDAC2
Type: biochemical
pIC50: −log10 of the molar value.
Below: a set of entries, each annotated with reported pIC50.
Experimental Readout: pIC50

[[record]]
compound = "CCC(=O)CCCCC[C@H](NC(=O)C1CC12CC1CCC(C2)N1C)c1ncc(-c2ccc3ncccc3c2)[nH]1 (single isomer, unassigned) [Compound 166]"
recorded_number = 8.66

[[record]]
compound = "CCC(=O)CCCCC[C@H](NC(=O)C1=NOC2(CCN(C)CC2)C1)c1ncc(-c2ccc3nn(C)cc3c2)[nH]1 [Compound 154]"
recorded_number = 7.71

[[record]]
compound = "CCC(=O)CCCCC[C@H](NC(=O)[C@H]1CC12CCN(C(C)C)CC2)c1ncc(-c2ccc3nc(C4CC4)ccc3c2)o1 [Compound 116]"
recorded_number = 7.80


====

Tested System: HDAC6 (Homo sapiens)
Sequence (Q9UBN7 whole entry): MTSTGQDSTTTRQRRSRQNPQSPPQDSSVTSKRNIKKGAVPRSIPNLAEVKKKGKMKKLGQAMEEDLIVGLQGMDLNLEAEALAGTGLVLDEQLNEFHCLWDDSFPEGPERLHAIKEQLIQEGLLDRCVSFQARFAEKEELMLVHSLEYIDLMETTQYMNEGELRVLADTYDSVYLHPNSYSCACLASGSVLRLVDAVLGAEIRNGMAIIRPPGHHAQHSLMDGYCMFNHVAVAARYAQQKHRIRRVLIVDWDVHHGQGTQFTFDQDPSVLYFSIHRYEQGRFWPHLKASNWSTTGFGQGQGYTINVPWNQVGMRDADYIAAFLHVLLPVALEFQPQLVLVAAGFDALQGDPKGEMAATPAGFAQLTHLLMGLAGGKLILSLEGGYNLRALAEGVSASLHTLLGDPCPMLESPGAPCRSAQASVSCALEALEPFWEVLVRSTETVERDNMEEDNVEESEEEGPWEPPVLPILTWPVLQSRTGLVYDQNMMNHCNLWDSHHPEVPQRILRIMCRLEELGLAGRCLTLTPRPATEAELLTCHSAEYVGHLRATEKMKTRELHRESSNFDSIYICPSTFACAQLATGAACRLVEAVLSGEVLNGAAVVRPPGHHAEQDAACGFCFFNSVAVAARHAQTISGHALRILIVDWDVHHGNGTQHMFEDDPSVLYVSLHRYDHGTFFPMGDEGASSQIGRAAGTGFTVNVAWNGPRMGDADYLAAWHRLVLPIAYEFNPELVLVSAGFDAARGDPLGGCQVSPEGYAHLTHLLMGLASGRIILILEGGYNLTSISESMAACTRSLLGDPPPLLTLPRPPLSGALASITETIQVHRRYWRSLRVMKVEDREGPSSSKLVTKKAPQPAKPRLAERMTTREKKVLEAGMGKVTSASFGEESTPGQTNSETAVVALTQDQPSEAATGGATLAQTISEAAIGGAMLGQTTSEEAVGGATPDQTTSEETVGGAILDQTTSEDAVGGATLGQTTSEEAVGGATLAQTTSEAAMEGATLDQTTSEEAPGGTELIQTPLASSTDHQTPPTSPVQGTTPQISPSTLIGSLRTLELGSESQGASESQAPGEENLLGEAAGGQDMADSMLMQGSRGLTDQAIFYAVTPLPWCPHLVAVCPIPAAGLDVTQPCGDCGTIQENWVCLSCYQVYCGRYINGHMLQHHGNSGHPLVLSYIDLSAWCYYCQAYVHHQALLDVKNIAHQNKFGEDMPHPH
Assay Notes: Human HDAC enzyme inhibitor Fluor-de-Lys assay, HDAC6
Type: biochemical
Experimental Conditions: HDAC6, Fluor-de-Lys assay
pIC50: −log10 of the molar value.
Below: a set of entries, each annotated with reported pIC50.
Experimental Readout: pIC50

[[record]]
compound = "CCC(=O)CCCCC[C@H](NC(=O)CC1CC2(C1)CN(C)C2)c1ncc(-c2ccccc2)[nH]1"
censor_symbol = "="
recorded_number = 4.92

[[record]]
compound = "CCC(=O)CCCCC[C@H](NC(=O)C1CC12CCN(CC)CC2)c1nc(-c2ccc(F)cc2)[nH]c1-c1cn[nH]c1 (some centres unmarked)"
censor_symbol = "="
recorded_number = 4.71

[[record]]
compound = "CCC(=O)CCCCC[C@H](NC(=O)C1CC12CCOCC2)c1ncc(-c2cc3ccc(C)nc3cc2OC)[nH]1 (single isomer, unassigned) [Compound 413]"
censor_symbol = "<"
recorded_number = 6.05

[[record]]
compound = "CCC(=O)CCCCC[C@H](NC(=O)C1CC12CN(C)C2)c1ncc(-c2cc3ccccc3nc2OC)[nH]1 (some centres unmarked)"
censor_symbol = "="
recorded_number = 6.52

[[record]]
compound = "CCC(=O)CCCCC[C@H](N)c1ncc(-c2cc3ccc(=O)n(C)c3cc2OC)o1"
censor_symbol = "<"
recorded_number = 6.05

[[record]]
compound = "CCC(=O)CCCCC[C@H](NC(=O)C1=NOC2(CCN(C(C)=O)CC2)C1)c1ncc(-c2ccccc2)[nH]1"
censor_symbol = "="
recorded_number = 4.79

[[record]]
compound = "CCC(=O)CCCCC[C@H](NC(=O)C1=NOC2(CCN(CC3CC3)CC2)C1)c1ncc(-c2cc3ccc(C)nc3cc2F)[nH]1"
censor_symbol = "<"
recorded_number = 6.05

[[record]]
compound = "CCC(=O)CCCCCC(CC)(NC(=O)[C@H]1CC12CCN(CC1CC1)CC2)c1nc(-c2cc3ccc(C)nc3cc2OC)c[nH]1 (some centres unmarked)"
censor_symbol = "<"
recorded_number = 6.05

[[record]]
compound = "CCC(=O)CCCCC[C@H](NC(=O)C1CCC2(CC1)CN(C)C2)c1ncc(-c2cc3ccccc3nc2OC)[nH]1 [Compound 315]"
censor_symbol = "="
recorded_number = 6.34

[[record]]
compound = "CCC(=O)CCCCC[C@H](NC(=O)C1CC12CCN(CC)CC2)c1nc(-c2ccc(F)cc2)[nH]c1-c1ccsc1 (some centres unmarked)"
censor_symbol = "="
recorded_number = 4.66

[[record]]
compound = "CCC(=O)CCCCC[C@H](NC(=O)[C@H]1CC12CCN(CC1CC1)CC2)c1ncc(-c2ccc3nc(C)ccc3c2)[nH]1"
censor_symbol = "="
recorded_number = 6.49

[[record]]
compound = "CCC(=O)CCCCC[C@H](NC(=O)CC1CC2(CNC2)C1)c1nnc(-c2cc3ccccc3nc2OC)o1"
censor_symbol = "="
recorded_number = 5.46

[[record]]
compound = "CCCC(=O)CCCCC[C@H](NC(=O)[C@H]1CC12CCN(C)CC2)c1ncc(-c2ccc(F)cc2)[nH]1"
censor_symbol = "<"
recorded_number = 4.35

[[record]]
compound = "CCC(=O)CCCCC[C@H](NC(=O)C1=NOC2(CCN(CC3CC3)CC2)C1)c1ncc(-c2cc3ccc(=O)n(C)c3cc2OC)o1"
censor_symbol = "<"
recorded_number = 6.05


====

Tested System: Recombinant human HDAC3/SMRT heterodimer (Homo sapiens)
Construct: FLAG (C); made in house
Sequence (O15379 whole entry): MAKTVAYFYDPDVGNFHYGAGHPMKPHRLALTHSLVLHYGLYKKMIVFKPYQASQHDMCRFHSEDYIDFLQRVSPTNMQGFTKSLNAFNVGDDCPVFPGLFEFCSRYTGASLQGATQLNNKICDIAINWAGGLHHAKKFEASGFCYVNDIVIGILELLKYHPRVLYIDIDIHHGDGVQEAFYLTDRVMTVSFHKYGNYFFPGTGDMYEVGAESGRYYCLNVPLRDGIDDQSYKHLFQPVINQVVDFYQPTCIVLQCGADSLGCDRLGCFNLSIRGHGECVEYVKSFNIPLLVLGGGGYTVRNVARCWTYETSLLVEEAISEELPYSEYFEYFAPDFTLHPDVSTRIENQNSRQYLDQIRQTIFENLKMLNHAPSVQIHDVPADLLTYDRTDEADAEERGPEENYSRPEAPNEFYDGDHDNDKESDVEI
Sequence (Q9Y618 1-899 partner limits assumed): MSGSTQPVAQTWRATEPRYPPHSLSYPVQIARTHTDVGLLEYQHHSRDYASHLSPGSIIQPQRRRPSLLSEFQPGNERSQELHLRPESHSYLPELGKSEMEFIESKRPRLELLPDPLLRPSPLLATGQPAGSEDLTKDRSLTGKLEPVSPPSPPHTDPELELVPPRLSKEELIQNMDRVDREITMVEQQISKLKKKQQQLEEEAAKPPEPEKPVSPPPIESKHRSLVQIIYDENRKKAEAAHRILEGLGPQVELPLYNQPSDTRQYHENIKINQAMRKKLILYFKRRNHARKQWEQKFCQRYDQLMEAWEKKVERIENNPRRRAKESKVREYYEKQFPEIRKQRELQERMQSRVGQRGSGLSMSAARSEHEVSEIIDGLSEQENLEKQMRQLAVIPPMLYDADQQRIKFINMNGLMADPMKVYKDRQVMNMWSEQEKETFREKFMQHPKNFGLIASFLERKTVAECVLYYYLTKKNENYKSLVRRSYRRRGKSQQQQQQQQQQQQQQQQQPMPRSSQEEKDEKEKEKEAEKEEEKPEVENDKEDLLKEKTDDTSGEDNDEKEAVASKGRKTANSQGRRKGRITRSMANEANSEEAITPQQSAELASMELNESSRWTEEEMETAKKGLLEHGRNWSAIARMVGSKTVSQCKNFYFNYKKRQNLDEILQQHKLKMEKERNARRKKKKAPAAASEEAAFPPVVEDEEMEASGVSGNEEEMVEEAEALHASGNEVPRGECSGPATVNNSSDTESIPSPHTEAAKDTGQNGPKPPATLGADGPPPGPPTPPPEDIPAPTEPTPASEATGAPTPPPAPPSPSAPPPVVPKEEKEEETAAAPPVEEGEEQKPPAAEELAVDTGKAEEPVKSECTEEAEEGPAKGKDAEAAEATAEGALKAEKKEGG
Assay Notes: Human HDAC enzyme inhibitor Fluor-de-Lys assay, HDAC3/SMRT
Type: biochemical
Experimental Readout: IC50 (nM)

[[record]]
compound = "CCC(=O)CCCCC[C@H](NC(=O)[C@@]1(C)CC12CCN(C(C)C)CC2)c1ncc(-c2ccc3nc(C)ccc3c2)[nH]1 (single isomer, unassigned)"
censor_symbol = "="
recorded_number = 3.94

[[record]]
compound = "CCC(=O)CCCCC[C@H](NC(=O)[C@H]1CC12CCN(C)CC2)c1ncc(-c2ccc3nc(CC)sc3c2)[nH]1"
censor_symbol = "="
recorded_number = 0.62

[[record]]
compound = "CCC(=O)CCCCC[C@H](NC(=O)[C@H]1CC12CCN(C)CC2)c1ncc(-c2cc(OC)c3ccccc3n2)[nH]1"
censor_symbol = "="
recorded_number = 4.84

[[record]]
compound = "CCC(=O)CCCCC[C@H](N)c1ncc(-c2cc3ccc(C)nc3cc2OC)[nH]1"
censor_symbol = "="
recorded_number = 21.6

[[record]]
compound = "CCC(=O)CCCCC[C@H](NC(=O)C1CCC2(CC1)CN(C)C2)c1ncc(-c2ccc3nn(C)cc3c2)[nH]1"
censor_symbol = "="
recorded_number = 1.98

[[record]]
compound = "CCC(=O)CCCCC[C@H](NC(=O)[C@H]1CC12CCN(C)CC2)c1ncc(-c2ccc(C3CC3)nc2)[nH]1"
censor_symbol = "="
recorded_number = 2.39

[[record]]
compound = "CCC(=O)CCCCC[C@H](NC(=O)[C@H]1CC12CCN(C(C)C)CC2)c1ncc(-c2ccc3c(ccc(=O)n3C)c2)o1"
censor_symbol = "="
recorded_number = 9.9

[[record]]
compound = "CCC(=O)CCCCC[C@H](NC(=O)C1CC2(C1)CN(C)C2)c1ncc(-c2ccc3nn(C)cc3c2)[nH]1"
censor_symbol = "<"
recorded_number = 1.5

[[record]]
compound = "CCC(=O)CCCCC[C@H](NC(=O)C1=NOC2(CCN(C)CC2)C1)c1ncc(-c2cc3ccc(C)nc3cc2OC)o1"
censor_symbol = "="
recorded_number = 0.73

[[record]]
compound = "CCC(=O)CCCCC[C@H](NC(=O)[C@H]1CC12CCN(CC)CC2)c1ncc(-c2ccc3nc(C4CC4)ccc3c2)[nH]1"
censor_symbol = "<"
recorded_number = 1.5

[[record]]
compound = "CCC(=O)CCCCC[C@H](NC(=O)[C@H]1CC12CCN(CC1CC1)CC2)c1ncc(-c2ccc3nc(C4CC4)ccc3c2)[nH]1"
censor_symbol = "<"
recorded_number = 1.5

[[record]]
compound = "CCC(=O)CCCCC[C@H](NCCN(C)C)c1ncc(-c2cc3ccc(C)nc3cc2OC)[nH]1"
censor_symbol = "="
recorded_number = 10.9

[[record]]
compound = "CCC(=O)CCCCC[C@H](NC(=O)[C@H]1CC12CCN(CC)CC2)c1ncc(-c2ccc3c(=O)n(C4CC4)ccc3c2)o1"
censor_symbol = "="
recorded_number = 6.14

[[record]]
compound = "CCC(=O)CCCCC[C@H](NC(=O)[C@H]1CC12CCN(C)CC2)c1ncc(-c2ccc3oc(=O)ccc3c2)[nH]1"
censor_symbol = "="
recorded_number = 1.62

